Cited source for all entries: paper PMC12396409

System: T. gondii RH strain (RH-Tub-eYFP) tachyzoites
TEST_DESCRIPTION: microbe, parasite or virus in culture
Assay type: cell-based, Toxoplasma gondii
COND: library screen at 2 μg/mL, 72 h, % growth, replicate 2
Where a SMILES comes first, the peptide text is derived from it. [ ]: non-standard residue; d: D form. Aoe = N[C@@H](CCCCCC(=O)[C@@H]1CO1)C(=O)O
One threshold, 90%, splits the recorded Tg_72h_%Growth_Rep2 values: lower ones are Yes, equal or higher ones are No.

Examples with answers:
| COMPOUND | CLASSIFICATION |
| --- | --- |
| C/C=C/C=C/C=C/C(=O)N[C@H]1CCCNC(=O)[C@H](C)N(C)C(=O)[C@H](C(C)C)N(C)C1=O | No |
| CNC[C@@H]1CC[C@@H](N)[C@@H](O[C@H]2[C@H](O)[C@@H](O[C@H]3OC[C@](C)(O)[C@H](NC)[C@H]3O)[C@H](N)C[C@@H]2N)O1 | Yes |
| C[C@@H]1NC(=O)[C@H](CCCCCC(=O)[C@@H]2CO2)NC(=O)[C@H]2CCCN2C(=O)[C@H](Cc2ccccc2)NC1=O [Alaninechlamydocin, 1-] (cyclo(AF[dP][Aoe])) | Yes |

(Q) Input COc1c2c(cc3c1c(=O)c1ccccc1n3C)OCO2 ; condition: Tg_72h_%Growth_Rep2 strictly below 90%. Does it hold?
(A) Yes
